experimental protocol: Antiproliferative activity against Hs683 cells after 72 hrs by MTT assay
Format: functional, cell-based, Homo sapiens, Hs 683
applied conditions: Homo sapiens, Hs 683, 72 h
pIC50: −log10 of the molar value.
property: pIC50

| item smiles | bound operator | val |
| --- | --- | --- |
| CN(C)CCN1C(=O)c2cccc3cc(NC(=S)Nc4ccc(Cl)cc4)cc(c23)C1=O | < | 5.00 |
| CN(C)CCN1C(=O)c2cccc3cc(NCc4ccc5c(c4)OCCO5)cc(c23)C1=O | = | 5.26 |
| CCOC(=O)c1ccc(NC(=O)Nc2cc3c4c(cccc4c2)C(=O)N(CCN(C)C)C3=O)cc1 | = | 5.68 |
| CN(C)CCN1C(=O)c2cccc3cc(NC(=O)Nc4ccc(Cl)cc4)cc(c23)C1=O | = | 5.55 |
| CN(C)CCN1C(=O)c2cccc3cc(NC(=O)C(Cl)(Cl)Cl)cc(c23)C1=O | < | 5.00 |
| CN(C)CCN1C(=O)c2cccc3cc(/N=C\c4ccc5c(c4)OCO5)cc(c23)C1=O | < | 5.00 |
| CN(C)CCN1C(=O)c2cccc3cc(NC(=O)C(F)(F)F)cc(c23)C1=O | = | 5.06 |
| CN(C)CCN1C(=O)c2cccc3cc(NCc4cc5c(cc4[N+](=O)[O-])OCO5)cc(c23)C1=O.Cl | = | 5.12 |
| CCOC(=O)CCC(=O)Nc1cc2c3c(cccc3c1)C(=O)N(CCN(C)C)C2=O | < | 5.00 |
| COC(=O)Nc1cc2c3c(cccc3c1)C(=O)N(CCN(C)C)C2=O | = | 5.48 |
| CN(C)CCN1C(=O)c2cccc3cc(NC(=O)Nc4ccc(OC(F)(F)F)cc4)cc(c23)C1=O | = | 5.59 |
| CN(C)CCN1C(=O)c2cccc3cc(NC(=O)c4ccccc4)cc(c23)C1=O | = | 5.25 |
| CN(C)CCN1C(=O)c2cccc3cc(NC(=O)Cc4ccc(Cl)cc4)cc(c23)C1=O | = | 5.15 |
| COc1cc(/C=N\c2cc3c4c(cccc4c2)C(=O)N(CCN(C)C)C3=O)ccc1O | < | 5.00 |
| CN(C)CCN1C(=O)c2cccc3cc(NC(=O)NC(=O)c4ccccc4)cc(c23)C1=O | = | 5.52 |
| CN(C)CCN1C(=O)c2cccc3cc(NC(=O)NC(=O)C(Cl)(Cl)Cl)cc(c23)C1=O | = | 6.10 |
| CN(C)CCN1C(=O)c2cccc3cc(NC(=S)Nc4ccc(OC(F)(F)F)cc4)cc(c23)C1=O | = | 5.19 |
| CN(C)CCN1C(=O)c2cccc3cc(NC(=O)NCCCl)cc(c23)C1=O | = | 5.34 |
| COc1ccc(CC(=O)Nc2cc3c4c(cccc4c2)C(=O)N(CCN(C)C)C3=O)cc1 | = | 5.38 |

* * *

experimental protocol: Toxicity in ip dosed B6D2F1 mouse
Format: organism-based
applied conditions: in vivo
property: MTD (mg/kg)

| compound | bound operator | val |
| --- | --- | --- |
| CN(C)CCN1C(=O)c2cccc3cc(NC(=O)NCCCl)cc(c23)C1=O | > | 80 |
| CN(C)CCN1C(=O)c2cccc3cc(/N=C\c4cc(O)ccc4O)cc(c23)C1=O.Cl | = | 40 |
| COC(=O)Nc1cc2c3c(cccc3c1)C(=O)N(CCN(C)C)C2=O | = | 40 |
| CN(C)CCN1C(=O)c2cccc3cc(/N=C\c4ccc5c(c4)OCO5)cc(c23)C1=O | = | 80 |
| COc1ccc(CC(=O)Nc2cc3c4c(cccc4c2)C(=O)N(CCN(C)C)C3=O)cc1 | = | 10 |
| CN(C)CCN1C(=O)c2cccc3cc(NC=O)cc(c23)C1=O | > | 80 |
| CN(C)CCN1C(=O)c2cccc3cc(N)cc(c23)C1=O [AMONAFIDE] | = | 40 |
| CN(C)CCN1C(=O)c2cccc3cc(NC(=O)Cc4ccc(Cl)cc4)cc(c23)C1=O | = | 20 |
| CCOC(=O)NC(=O)Nc1cc2c3c(cccc3c1)C(=O)N(CCN(C)C)C2=O | = | 80 |
| CN(C)CCN1C(=O)c2cccc3cc(NC(=O)Nc4ccc(Cl)cc4)cc(c23)C1=O | = | 80 |
